systemName: T1, Recombinant Human TNF-α/TNFSF1A (human, UniProt P01375 77-233)
T1 construct: Bought reagent (R&D Systems 210-TA); also called hTNF-α; huTNF-α
T1 sequence (P01375 77-233 limits assumed): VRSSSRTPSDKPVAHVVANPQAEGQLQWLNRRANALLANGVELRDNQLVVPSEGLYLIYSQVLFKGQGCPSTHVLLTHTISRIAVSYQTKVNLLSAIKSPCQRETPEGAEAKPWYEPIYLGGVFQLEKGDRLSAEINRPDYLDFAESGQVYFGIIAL
assayInfo: SPR (Biacore), antibody captured, TNF-α in solution
measuredQuantity: Kd (nM)
Lab book: enter the figure in nM, no units written.

[[record]]
binder = "AB241 (antibody, V domains shown, also called hMAK195VH.1 / hMAK195VL.1a) VH: EVQLQESGPGLVKPSETLSLTCTVSGGSISDYGVNWIRQPPGKGLEWIGMIWGDGSTDYDSTLKSRVTISVDTSKNQFSLKLSSVTAADTAVYYCAREWHHGPVAYWGQGTLVTVSS VL: DIQMTQSPSSLSASVGDRVTITCKASQAVSSAVAWYQQKPGKSPKLLIYWASTRHTGVPSRFSGSGSGTDFTLTISSLQPEDFATYYCQQHYSTPFTFGQGTKLEIK"
measuredquantity = "Kd"
value = 0.573

[[record]]
binder = "AB243 (antibody, V domains shown, also called hMAK195VH.1 / hMAK195VL.2a) VH: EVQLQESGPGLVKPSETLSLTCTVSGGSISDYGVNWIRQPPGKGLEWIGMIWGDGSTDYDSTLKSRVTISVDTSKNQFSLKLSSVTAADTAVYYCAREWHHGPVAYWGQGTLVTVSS VL: EIVMTQSPATLSLSPGERATLSCKASQAVSSAVAWYQQKPGQSPRLLIYWASTRHTGVPARFSGSGSGTDFTLTISSLQPEDFAVYYCQQHYSTPFTFGQGTKLEIK"
measuredquantity = "Kd"
value = 1.62

[[record]]
binder = "AB248 (antibody, V domains shown, also called hMAK195VH.1b / hMAK195VL.1) VH: EVQLQESGPGLVKPSETLSLTCTVSGFSLSDYGVNWIRQPPGKGLEWIGMIWGDGSTDYDSTLKSRVTISKDTSKNQFSLKLSSVTAADTAVYYCAREWHHGPVAYWGQGTLVTVSS VL: DIQMTQSPSSLSASVGDRVTITCKASQAVSSAVAWYQQKPGKAPKLLIYWASTRHTGVPSRFSGSGSGTDFTLTISSLQPEDFATYYCQQHYSTPFTFGQGTKLEIK"
measuredquantity = "Kd"
value = 0.174

[[record]]
binder = "AB244 (antibody, V domains shown, also called hMAK195VH.1a / hMAK195VL.1) VH: EVQLQESGPGLVKPSETLSLTCTVSGFSLSDYGVNWVRQPPGKGLEWLGMIWGDGSTDYDSTLKSRLTISKDNSKSQISLKLSSVTAADTAVYYCAREWHHGPVAYWGQGTLVTVSS VL: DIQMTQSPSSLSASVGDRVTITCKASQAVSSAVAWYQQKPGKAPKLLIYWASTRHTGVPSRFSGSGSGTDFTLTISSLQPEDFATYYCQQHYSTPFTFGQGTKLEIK"
measuredquantity = "Kd"
value = 0.0891


Consider now this further binder.
Tell me Kd reported for AB253 (antibody, V domains shown, also called hMAK195VH.2 / hMAK195VL.1a) VH: EVQLVESGGGLVQPGGSLRLSCAASGFTFSDYGVNWVRQAPGKGLEWVSMIWGDGSTDYDSTLKSRFTISRDNSKNTLYLQMNSLRAEDTAVYYCAREWHHGPVAYWGQGTLVTVSS VL: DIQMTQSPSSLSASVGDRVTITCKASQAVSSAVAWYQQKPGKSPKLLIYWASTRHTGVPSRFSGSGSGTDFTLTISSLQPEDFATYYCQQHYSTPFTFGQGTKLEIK
0.0733
